Each recorded value in this set is attributed to PubChem BioAssay (NCI).

Test system: UACC-257 melanoma
Assay: NCI tumour cell line growth inhibition, 48 h
Reported TGI by item:
quantity-measured: TGI

{"columns": ["molecule", "result"],
 "data": [
  ["CN(C)S(=O)(=O)c1cccc(C(=O)Nc2nc(-c3ccc(F)c(F)c3)cs2)c1", "> 100 µM"],
  ["COc1cc(/C=C2\\C(=O)N(c3cccc(NC(C)=O)c3)C(c3ccccc3)S2(=O)=O)cc(OC)c1OC (stereo not drawn)", "> 100 µM"],
  ["COc1ccc(C2=C(c3ccc(OC)cc3)C(=O)OC2)cc1", "> 100 µM"],
  ["O=C(CCN1CCCC1)Nc1ccc2c(Nc3ccc(F)cc3)c3ccccc3nc2c1", "4.12 µM"],
  ["COC(=O)[C@@]12CSC[C@]1(C(=O)OC)N[C@@H](c1ccccc1O)C2", "> 100 µM"],
  ["COc1ccc(C2=Nn3c(nnc3-c3ccc(F)c(Cl)c3)SC2)cc1", "> 100 µM"],
  ["Cc1cn(S(=O)(=O)c2ccccc2)c2c(OCc3ccccc3)cc([N+](=O)[O-])cc12", "> 100 µM"],
  ["CC(=O)CC[N+](C)(C)C", "54.6 µM"],
  ["O=CNC(Cc1cnc[nH]1)C(=O)O (stereo not drawn)", "> 100 µM"],
  ["COCN1COCN(C)C1=O", "> 100 µM"],
  ["CC(NCCN(C)C)C1CCC2C3CCc4cc(O)ccc4C3CCC12C (stereo not drawn)", "3.83 µM"],
  ["COc1ccc(Cn2cc3c(c2-c2ccccc2)CCc2cnoc2-3)cc1", "> 100 µM"],
  ["COC(=O)C1(Cc2ccc3c(c2)CCC3)Cc2ccc3c(c2C1=O)CCC3 (stereo not drawn)", "> 100 µM"],
  ["O=C(O)CCCN1C(=O)/C(=C/C(Cl)=C/c2ccccc2)SC1=S", "6.8 µM"],
  ["CCOP(=O)(OCC)C(c1ccc(F)cc1)N(C(=O)NC(F)(F)F)c1ccc(F)cc1 (stereo not drawn)", "> 100 µM"],
  ["O=C(c1ccc(Cl)cc1Cl)N1CCN(C(=O)c2ccc(Cl)cc2Cl)C1=S", "63.4 µM"],
  ["O=C(O)CCC(O)=C1S(=O)(=O)OCCOS1(=O)=O", "> 100 µM"],
  ["OCc1c(-c2cccs2)oc(-c2cccs2)c1CO", "> 100 µM"],
  ["COc1ccc2c(c1)/C(=C\\c1c(Cl)nc3n1CCS3)C(=O)N2", "25.8 µM"],
  ["COc1ccc(/C=C\\c2cc(OC)c(OC)c(OC)c2)cc1NC(=O)/C=C/c1ccc(OC)c(OC)c1", "> 100 µM"],
  ["N[C@H]1CCC[C@@H](O)C1O (stereo partly drawn)", "> 100 µM"],
  ["CC1OC(NCCNCCNC2OC(C)C(O)C(O)C2O)C(O)C(O)C1O (stereo not drawn)", "> 100 µM"],
  ["COc1ccc2c(=O)c(-c3cc(OC)c(OC)cc3OC)coc2c1", "> 100 µM"],
  ["CC1=C[P+](c2ccccc2)(c2ccccc2)c2ccccc2O1", "> 100 µM"],
  ["Nc1cc(C2CCCc3c2[nH]c2ccccc32)ccc1O (stereo not drawn)", "> 100 µM"],
  ["COc1ccc2nc3cc(Cl)ccc3c(Sc3ccc(N)cc3)c2c1", "26.1 µM"],
  ["ClCCCN1CCN(CCCl)CC1", "> 1000 µM"],
  ["CCCC(=O)Oc1ccc(/C(=C(\\C)c2ccc(Cl)cc2)c2ccc(OCCN(CC)CC)cc2)cc1", "4.18 µM"]
]}
